In this section, each of the molecules is paired with its reported pIC50.
# assay system: human TLR7 (Homo sapiens, UniProt Q9NYK1)
# Sequence (Q9NYK1 27-1049): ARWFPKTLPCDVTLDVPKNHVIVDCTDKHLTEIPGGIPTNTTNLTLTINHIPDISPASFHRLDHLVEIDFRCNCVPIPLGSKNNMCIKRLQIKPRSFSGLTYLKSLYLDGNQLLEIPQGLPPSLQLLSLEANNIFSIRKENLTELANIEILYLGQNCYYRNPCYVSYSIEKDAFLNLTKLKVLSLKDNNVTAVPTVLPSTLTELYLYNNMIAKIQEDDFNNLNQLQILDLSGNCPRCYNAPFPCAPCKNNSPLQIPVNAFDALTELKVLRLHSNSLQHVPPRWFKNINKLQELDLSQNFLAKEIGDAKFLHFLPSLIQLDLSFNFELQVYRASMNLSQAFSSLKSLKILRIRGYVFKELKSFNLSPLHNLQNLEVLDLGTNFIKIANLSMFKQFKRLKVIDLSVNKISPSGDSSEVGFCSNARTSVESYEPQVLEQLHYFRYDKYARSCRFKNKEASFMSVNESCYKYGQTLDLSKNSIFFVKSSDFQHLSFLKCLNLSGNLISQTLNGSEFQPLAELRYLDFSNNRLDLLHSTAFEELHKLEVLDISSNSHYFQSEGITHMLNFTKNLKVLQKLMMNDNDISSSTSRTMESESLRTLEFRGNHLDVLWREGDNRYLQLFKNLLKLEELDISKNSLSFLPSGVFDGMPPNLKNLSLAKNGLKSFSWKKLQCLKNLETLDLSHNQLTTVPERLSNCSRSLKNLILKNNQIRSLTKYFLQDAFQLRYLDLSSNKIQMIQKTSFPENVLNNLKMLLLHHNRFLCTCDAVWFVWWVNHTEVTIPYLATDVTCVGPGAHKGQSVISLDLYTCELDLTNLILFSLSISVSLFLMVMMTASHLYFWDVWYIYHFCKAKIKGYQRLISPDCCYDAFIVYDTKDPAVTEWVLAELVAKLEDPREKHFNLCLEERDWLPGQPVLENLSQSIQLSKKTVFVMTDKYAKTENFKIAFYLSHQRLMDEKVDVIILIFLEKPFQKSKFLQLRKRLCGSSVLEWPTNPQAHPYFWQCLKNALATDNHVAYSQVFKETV
# assay: TLR7 inhibition reporter assay (HEK-Blue SEAP)
# condition parameters: HEK-Blue cells overexpressing human TLR7, gardiquimod 7.5 μM, 22 hour incubation
pIC50 here: minus log base 10 of the concentration, concentration in moles per litre.

Example entries begin here.
COc1cc(-c2cc3[nH]c(=O)n([C@@H]4CCCN(CC(C)C)C4)c3cc2C(C)C)cn2ncnc12    9.92
Cc1cc2c(cc1-c1cc(C)c3ncnn3c1)[nH]c(=O)n2[C@@H]1CCCN(CC(C)(C)C)C1    6.63
CCc1cc2c(cc1-c1cc(OC)c3ncnn3c1)[nH]c(=O)n2[C@@H]1CCCN(CC2CCOCC2)C1    9.08
COc1cc(-c2cc3[nH]c(=O)n([C@@H]4CCCN(CC5CCOCC5)C4)c3cc2C(C)C)cn2ncnc12    9.12
CCc1cc2c(cc1-c1cc(OC)c3ncnn3c1)[nH]c(=O)n2[C@@H]1CCCN(C2COC2)C1    7.49

Please give measured pIC50 of the following entry: `CCc1cc2c(cc1-c1cc(OC)c3ncnn3c1)[nH]c(=O)n2[C@H]1CC[C@@H](N(CC)CC)CC1`
8.74

Please give measured pIC50 of the following entry: `COc1cc(-c2cc3[nH]c(=O)n([C@H]4CCCN(CC(C)C)C4)c3cc2C(C)C)cn2ncnc12`
7.89

Please give measured pIC50 of the following entry: COc1cc(-c2cc3[nH]c(=O)n(C4CCC(N5CCC(OC)C5)CC4)c3cc2C(C)C)cn2ncnc12 (stereo not drawn) [Example 285]
9.18

Please give measured pIC50 of the following entry: `COCCN1CCC[C@@H](n2c(=O)[nH]c3cc(-c4cc(C)c5ncnn5c4)c(C)cc32)C1`
7.41

Please give measured pIC50 of the following entry: `CCc1cc2c(cc1-c1cc(OC)c3ncnn3c1)[nH]c(=O)n2[C@@H]1CCCN(CCC(F)(F)F)C1`
7.91

Please give measured pIC50 of the following entry: `CCc1cc2c(cc1-c1cc(OC)c3ncnn3c1)[nH]c(=O)n2[C@@H]1CCCN(C(=O)CN(C)C)C1`
7.46

Please give measured pIC50 of the following entry: COc1cc(-c2cc3[nH]c(=O)n(C4CCC(N5CC6(CCOCC6)C5)CC4)c3cc2C(C)C)cn2ncnc12 (single isomer, unassigned) [Example 235]
8.82

Please give measured pIC50 of the following entry: Cc1c(-c2cc3[nH]c(=O)n(C4CCC(N5CCCC(F)C5)CC4)c3cc2C(C)C)cn2ncnc2c1C (stereo not drawn) [Example 273]
8.04

Please give measured pIC50 of the following entry: `Cc1cc2c(cc1-c1cc(C)c3ncnn3c1)[nH]c(=O)n2[C@@H]1CCCN(CC(=O)N(C)C)C1`
6.93

Please give measured pIC50 of the following entry: `Cc1cc2c(cc1-c1cc(C)c3ncnn3c1)[nH]c(=O)n2[C@H]1CCCN(CC(N)=O)C1`
6.09

Reference for the values: patent US12187723B2
